Measured polymerase ribozyme fitness (log ratio) accompanies every entry in the list below.
B1: TPR 5TU (parent)
chain: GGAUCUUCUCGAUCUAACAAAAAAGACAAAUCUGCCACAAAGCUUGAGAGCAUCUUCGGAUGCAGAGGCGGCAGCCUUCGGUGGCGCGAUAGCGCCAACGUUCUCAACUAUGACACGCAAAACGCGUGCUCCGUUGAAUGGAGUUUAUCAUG

- Variants of: B1
- Procedure text: polymerase ribozyme fitness, log enrichment relative to wild type (log ratio); higher = more active; in vitro selection for triplet polymerase activity
This sample holds only a part of the variants without activity.

- Variant identifier: "C8G A22U C85U C103U"
  Result value: "≤ -4.2"

Q: Give the measured polymerase ribozyme fitness (log ratio) of G83U A89G C95U C103G .
Ans: ≤ -4.2

Q: Could you do the same for C8A C32A G62A U82G G143A , please?
Ans: ≤ -4.2

Q: Next entry: C8U C35U G80A G83A U102G U145C U146C
Ans: ≤ -4.2

Q: G50U A107C C132A , same question.
Ans: ≤ -4.2

Q: Another variant to check: A40U C95U G143U
Ans: ≤ -4.2

Q: Also C32G U55A C79A C116G C149A ?
Ans: ≤ -4.2
